Source of measurements: PubChem BioAssay

Experiment: AGP1-GFP expression modulators, hit retest, confirmation, cell-based, flow cytometry, S. cerevisiae, cherry picks (AID 2273);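 also: median GFP channel fluorescence over the whole cell population gate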
Conditions: S. cerevisiae AGP1-GFP strain, 3 h, at 10 µM
Give GFP response, % of DMSO for every item shown.
Give bare numbers, in %.

As a guide, the following entries are already answered.
Compound	Measurement type	Unit spec	Measurement
Cc1ccc(N2C(=O)c3ccccc3NC2c2ccccc2O)cc1 (stereo not drawn)	GFP response, % of DMSO	%	96.6
Cc1nn(Cc2ccc(Cl)cc2)c(=O)n1N(C)c1ncc(C(F)(F)F)cc1Cl	GFP response, % of DMSO	%	95.4
O=C1CC(SCc2nc3ccccc3[nH]2)C(=O)N1c1ccc(F)cc1 (stereo not drawn)	GFP response, % of DMSO	%	106
O=[N+]([O-])c1cc(F)c2cccnc2c1O	GFP response, % of DMSO	%	125
O=S(=O)(c1ccccc1)c1ccc(C(F)(F)F)cn1	GFP response, % of DMSO	%	101
O=C(COc1ccc(OCc2ccccc2)cc1)NN=C1CCCC1	GFP response, % of DMSO	%	99.5

Give GFP response, % of DMSO for all compounds that follow.
1. CCOC(=O)C1(Cc2ccccc2Cl)CCN(C(=O)CCn2ccnc2C)CC1
2. Cc1ccc(C(=O)OCC(=O)Nc2ccccc2Sc2ccccc2)cc1C
3. O=Nc1c(O)c2ccccc2c2ccccc12
4. Cc1ccc(-c2noc(CCC(=O)Nc3ccccc3C)n2)cc1
5. Cc1ccccc1N1C(=O)c2cccc3c(N(C)CCO)ccc(c23)C1=O
6. COc1cccc(/C=N\NC(=O)c2cc(OCC(F)(F)F)ccc2OCC(F)(F)F)c1

Reply |
1: 100; 2: 99.3; 3: 104; 4: 100; 5: 103; 6: 96

###

Experiment: modulators of MEP2-GFP levels in yeast, confirmation, S. cerevisiae, flow cytometry GFP, cherry picks (AID 2272);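 also: ratio of well signal to plate DMSO mean so 100% equals DMSO level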
Settings: S. cerevisiae MEP2-GFP strain, 3 h, at 10 µM, active compounds read high
Would you mind telling me the reported GFP response vs DMSO of each entry?
Give bare numbers, in %.

Completed entries (count: 3):
Compound	GFP response vs DMSO [%]
Cc1nn2c(N3CCOCC3)c3c(nc2c1-c1ccccc1)CCCC3	103
Cc1ccc(Sc2ncnc3onc(C)c23)cc1	96.8
O=C(c1ccc([N+](=O)[O-])o1)N(Cc1nnc(-c2ccccc2Cl)o1)C1CC1	99

Dear colleague, could you send me GFP response vs DMSO for each of the items below? Thanks.
1. CCC(Sc1nc(=O)cc(N)n1-c1ccccc1)C(=O)Nc1cc(C)on1 (stereo unspecified)
2. COc1ccccc1C1C2=C(CC(C)(C)CC2=O)N(CC(=O)O)C2=C1C(=O)CC(C)(C)C2
3. COc1ccc(CC2=CC(=O)c3ccccc3C2=O)cc1

Reply |
[108, 133, 104]

###

Could you please report measured GFP response relative to DMSO for the items listed next?
Assay: LAP4-GFP expression modulators in yeast, confirmation, cell-based, cherry picks, flow cytometry, mother/daughter gates (AID 2271);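 also: ratio of sample to DMSO plate mean so 100% equals DMSO level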
Settings: S. cerevisiae LAP4-GFP strain, 3 h, at 10 µM, active compounds read high, 100 means same as DMSO control
Numbers only, in %.

For every item in the list below, what is its measured GFP response relative to DMSO?
1. COc1cccc(C(=O)Nc2ccccc2)c1
2. CCCc1[nH]nc2c1C(c1ccc(OCCN3CCOCC3)c(OC)c1)C(C#N)=C(N)O2 (stereo not drawn)

Reply |
[106, 97.9]

Give GFP response relative to DMSO for each of the items listed below.
1. O=C(NCC(=O)N1CCCC1)c1cccs1
2. COC(=O)c1ccc(Sc2ccccn2)c([N+](=O)[O-])c1
3. O=C1/C(=C\c2ccccn2)SC(=S)N1Nc1ncc(C(F)(F)F)cc1Cl
4. CCOc1cc(/C=C2/N=C(c3ccc4c(c3)OCO4)OC2=O)ccc1OC(C)=O
5. Cn1cnnc1SCC(=O)Nc1nc(-c2ccc(F)cc2)cs1
6. O=c1c2c(-c3ccc(Cl)cc3)csc2ncn1/N=C/c1cccc([N+](=O)[O-])c1O
7. CNC(=O)/C(C#N)=C/c1c(N(Cc2ccccc2)Cc2ccccc2)nc2c(C)cccn2c1=O

Reply |
99.2
99.5
98.8
95.7
97
97.7
94.4

###

Target: ATP-binding cassette sub-family B member 6 (Homo sapiens)
Assay: ABCB6 transporter inhibitors, pilot screen, K562-ABCB6 cells, flow cytometry, validation set (AID 588550);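 also: 0% = DMSO wells and 100% = benzethonium chloride 70 µM positive control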
Settings: K562-ABCB6 porphyrin accumulation, 1 h, at 10 µM, active compounds read high
Please provide measured inhibition for the entries that follow.
Answers are plain numbers, in %.

Compound	inhibition, %
CCCC(=O)Nc1ccc(OCC(O)CNC(C)C)c(C(C)=O)c1 (stereo not drawn)	-3
CC(C)(C)C(=O)NC(=S)Nc1sc2c(c1C(N)=O)CCC2	4
CC(C)Oc1ccc(C(CC(=O)O)c2ccc(F)cc2)cc1 (stereo not drawn)	5

Please supply inhibition for each of the following items, keeping them in order.
1. COc1ccccc1C1C(C#N)=C(N)Oc2c1oc(CO)cc2=O (stereo not drawn)
2. Cc1ccccc1OCCSc1nc2ncnc(N)c2[nH]1

Reply |
[9, 1]

###

Experiment: superoxide lowering in aged yeast cells, pilot screen, validation compound set (AID 2706);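 also: yeast exposed to compound for one week at 30 degrees C before staining; 100% = mean of all compound wells on the same plate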
Details: S. cerevisiae aging, superoxide DHE fluorescence; at 10 µM, active compounds read low
Consider the following molecules; for each one, report its superoxide response (% of plate).
Answers are plain numbers, in %.

Some entries whose results are on file:
Molecule	Measurement type	Unit spec	Measurement
CN1CCc2cccc3c2[C@@H]1Cc1ccc(O)c(O)c1-3	superoxide response (% of plate)	%	93.1
CCC12CN3CC(CC)(CN(C1)C31C(=O)N(C)c3ccc(C)cc31)C2=O (stereo unspecified)	superoxide response (% of plate)	%	94.6
CCCCC1C(=O)N(c2ccccc2)N(c2ccccc2)C1=O	superoxide response (% of plate)	%	94.9
COc1ccc(CN(CCC(c2ccc(F)cc2)C2CCOC(C)(C)C2)C(=O)c2ccco2)cc1 (stereo unspecified)	superoxide response (% of plate)	%	104
CC1(C(=O)O)CCC(C(=O)NC2CCCCCC2)C1(C)C (stereo unspecified)	superoxide response (% of plate)	%	99.3

Give one value of superoxide response (% of plate) per listed molecule.
1. COC(=O)c1ccc(COc2ccc3c(C)c(C)c(=O)oc3c2C)o1
2. CC(C)CC(=O)N(Cc1ccc(F)cc1)C1CCS(=O)(=O)C1 (stereo unspecified)
3. Cc1cc(-c2ccccc2)nnc1NCCN1CCOCC1
4. CCOC(=O)C1C(=O)CC(C)(O)C(C(=O)OCC)C1/C=C/c1ccccc1 (stereo unspecified)

Reply |
1: 96.2; 2: 114; 3: 94.8; 4: 96.1

For each listed entry, give its superoxide response (% of plate).
1. CN1C(=O)C(O)(CC(=O)/C=C/C=C/c2ccccc2)c2ccccc21 (stereo unspecified)
2. OCC1(CCOc2ccccc2)CCN(CCCn2cccn2)CC1

Reply |
1: 102; 2: 86.7

###

Assay: modulators of MEP2-GFP levels in yeast, confirmation, S. cerevisiae, flow cytometry GFP, cherry picks (AID 2272);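 also: ratio of well signal to plate DMSO mean so 100% equals DMSO level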
Conditions: S. cerevisiae MEP2-GFP strain, 3 h, at 10 µM, active compounds read high
Measurement type: GFP response vs DMSO (%)
Give bare numbers, in %.

Compound	GFP response vs DMSO, %
O=C(COC(=O)c1n[nH]c2ccccc12)c1ccc(F)c(F)c1	103
O=[N+]([O-])c1ccc(-c2cn3nc(-c4ccccc4)c(-c4ccccc4)nc3n2)cc1	227
Cc1cc(NC(c2ccc(Cl)cc2)c2ccc3cccnc3c2O)no1 (stereo not drawn)	100
Cc1ccc(/C=C/C(=O)c2ccccc(=O)c2O)c(C)c1	137
CCC(=O)Oc1oc(-c2ccccc2)nc1C=Nc1ccc(C)cc1	126

Please supply GFP response vs DMSO for each of the following items, keeping them in order.
1. Cc1ccc(CS(=O)(=O)c2ncc(Cl)c(C(=O)Nc3nnc(C)s3)n2)cc1
2. CCN(CC(=O)NC(C)(C)C)C(=O)COc1c(Cl)cc(Cl)c2ccc(C)nc12
3. O=C(Nc1ccccc1)c1c(F)cccc1F
4. N#Cc1cc(Sc2ccccn2)c([N+](=O)[O-])cc1C#N
5. Nc1nc(SCC(=O)Nc2cc(C(F)(F)F)ccc2N2CCOCC2)n[nH]1
6. CCN(CC)CCCN(C(=O)c1ccc(Br)cc1)c1nc(-c2ccc(OC)cc2)cs1
7. Cc1cc(=O)oc2cc(OC(C)C(=O)NC3CCCC3)ccc12 (stereo not drawn)
8. CS(=O)(=O)N1N=C(c2ccco2)CC1c1ccccc1 (stereo not drawn)

Reply |
1. 101
2. 126
3. 105
4. 143
5. 105
6. 101
7. 101
8. 99

Answer for every listed entry: what is its GFP response vs DMSO? The entries follow.
1. Cc1onc(-c2c(Cl)cccc2Cl)c1NC(=O)NNc1c(Cl)cncc1Cl
2. COc1ccc(S(=O)(=O)NCC(=O)N(CC(=O)NCc2ccco2)Cc2ccc(F)cc2)cc1
3. COc1cc(NC(=O)c2oc3ccccc3c2C)ccc1NC(=O)c1ccco1
4. Cc1ccc(S(=O)(=O)N2CCCC2C(=O)Oc2ccccc2)cc1 (stereo not drawn)

Reply |
1. 100
2. 99
3. 110
4. 100
